Just for reference, paper PMC12305662 is where these values come from.

Tested on: Mtb H37Rv
Test: Extracellular Mtb growth on cholesterol, MABA MIC99
Type: cell-based, Mycobacterium tuberculosis
Conditions: Mycobacterium tuberculosis, H37RV, 336 h; cholesterol as sole carbon source; 2 weeks post-compound treatment; read-out: MABA-MIC99 (W2) H37Rv, cholesterol
measure_name: MIC99 (µM)
Quick reminder: number only, in µM, skip the unit.

// MIC99 lookup, key: COc1ccc(C(C)Nc2ccc(Cc3ccncc3)cc2)cc1 (centres unmarked)
19

Next entry: O=C(NCc1ccc2[nH]ccc2c1)c1cccc(Cc2ccncc2)c1
13

Next entry: O=C(NCc1ccc2[nH]ccc2c1)c1cccc(Nc2ccncc2)c1
13

Please do the same for O=C(Nc1ccc(Cc2ccncc2)cc1)[C@H](Cc1c[nH]c2ccccc12)NCc1ccccc1 as well.
25

# repeat for C[C@@H](NC(=O)c1ccc(Cc2ccncc2)cc1)c1ccccc1
25

----------
System: Mtb CDC1551
Experiment: Depletion of intracellular ATP (BacTiter Glo), Mtb on cholesterol
Assay type: cell-based
Settings: Mycobacterium tuberculosis, CDC1551, 336 h; cholesterol as sole carbon source; 2 weeks post-compound treatment; read-out: ATP-IC50 (W2) CDC1551, cholesterol
measure_name: pIC50
Quick note: pIC50 means taking -log10 of the concentration in moles per liter.

Please state recorded pIC50 (tested on Mtb CDC1551) of C[C@@H](NC(=O)c1ccc(Cc2ccncc2)cc1)c1ccccc1 [5i]
4.42

Next record, please: O=S(=O)(Nc1ccc(Cc2ccncc2)cc1)c1ccc(OC(F)(F)F)cc1 [5k]
5.03

Also C[C@@H](NC(=O)c1cccc(Cc2ccncc2)c1)c1ccccc1 [5h] , if possible.
4.42

O=C(Nc1ccc(Cc2ccncc2)cc1)[C@H](Cc1c[nH]c2ccccc12)NCc1ccccc1 [5d] ?
4.42

Further, for Nc1ccc(C(=O)O)c(O)c1 [p-aminosalicylic acid, reference compound] ?
5.64

Another compound to look at: CS(=O)(=O)c1cccc(CNc2ccc(Cc3ccncc3)cc2)c1 [5p]
4.72

Try O=C(Nc1ccc(Cc2ccncc2)cc1)c1ccccc1 [5a] next.
4.42

Now the compound O=C(NCc1ccc2[nH]ccc2c1)c1cccc(Nc2ccncc2)c1 [5g]
4.42

Note, next up: O=C(NCc1ccc2[nH]ccc2c1)c1cccc(Cc2ccncc2)c1 [5e]
4.72

Subsequent entry: COc1ccc(CNc2ccc(Cc3ccncc3)cc2)cc1 [5m]
5.03

----------
I'd appreciate it if you could supply CYP142 Δλmax (nm) values for the items below.
Target: CYP142 (Mycobacterium tuberculosis, UniProt P9WPL5)
Sequence (P9WPL5 whole entry): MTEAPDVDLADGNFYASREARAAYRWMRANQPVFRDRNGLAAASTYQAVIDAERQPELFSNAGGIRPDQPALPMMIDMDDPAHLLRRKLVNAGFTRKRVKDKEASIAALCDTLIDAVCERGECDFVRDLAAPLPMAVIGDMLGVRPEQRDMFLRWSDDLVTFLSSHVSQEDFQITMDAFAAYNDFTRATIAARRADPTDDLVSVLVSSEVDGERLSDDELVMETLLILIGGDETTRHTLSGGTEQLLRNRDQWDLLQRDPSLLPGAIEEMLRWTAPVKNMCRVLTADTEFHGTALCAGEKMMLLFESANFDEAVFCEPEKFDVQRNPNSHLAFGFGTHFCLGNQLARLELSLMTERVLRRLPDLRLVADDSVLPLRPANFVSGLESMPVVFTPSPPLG
Conditions: compound 100 µM, P450 5 µM
Express it in nm; write the number only.

Entry O=S(=O)(c1ccccc1)c1ccncc1 [2e, 4-(Phenylsulfonyl)pyridine] has what CYP142 Δλmax (nm)?
0

Then this molecule: COC(=O)c1cccc(Nc2ccncc2)c1 [4c]
3

Okay, and O=C(c1ccccc1)c1ccncc1 [2f] ?
0

Check c1ccc(Oc2ccncc2)cc1 [2d, 4-Phenoxypyridine] too.
2

Try this molecule too: c1ccc(CCc2ccncc2)cc1 [2h, 4-Phenethylpyridine]
2

Now consider CC(=O)Nc1ccc(Cc2ccncc2)cc1 [3f] and answer again.
2

Query Brc1cccc(Nc2ccncc2)c1 [4h, N-(3-Bromophenyl)pyridin-4-amine] next
4

What would you report for OCc1cccc(Nc2ccncc2)c1 [4g] ?
1

Next: Brc1ccc(Nc2ccncc2)cc1 [4i, N-(4-Bromophenyl)pyridin-4-amine]
4

Do the same for Nc1ccc(Cc2ccncc2)cc1 [3e] please
3

One more molecule: CN(c1ccccc1)c1ccncc1 [2b, N-Methyl-N-phenylpyridin-4-amine]
4

For Nc1ccc(Nc2ccncc2)cc1 [4b, N^1-(Pyridin-4-yl)benzene-1,4-diamine] then?
3

Also need O=C(O)c1cccc(Nc2ccncc2)c1 [4e, 3-(Pyridin-4-ylamino)benzoic Acid] , thanks.
0

Item: CS(=O)(=O)Nc1ccc(Cc2ccncc2)cc1 [3g]
0

Also COC(=O)c1ccc(Nc2ccncc2)cc1 [4d, Methyl 4-(pyridin-4-ylamino)benzoate] , if possible.
3

Moving on to the next molecule: C(=C\c1ccncc1)/c1ccccc1 [2g, (E)-4-Styrylpyridine]
3

Can you handle Nc1cccc(Nc2ccncc2)c1 [4a, N^1-(Pyridin-4-yl)benzene-1,3-diamine] next?
3

# iterate: COc1cccc(Cc2ccncc2)c1 [3a, 4-(3-Methoxybenzyl)pyridine]
2

How about O=C(O)c1ccc(Nc2ccncc2)cc1 [4f, 4-(Pyridin-4-ylamino)benzoic Acid] ?
0

Again, but for c1ccc(N(c2ccccc2)c2ccncc2)cc1 [2c, N,N-Diphenylpyridin-4-amine]
4

Here is the next molecule: COc1ccc(Cc2ccncc2)cc1 [3b, 4-(4-Methoxybenzyl)pyridine]
2
